Molecular target: human SLC6A19 and TMEM27 (Homo sapiens)
Construct: expressed in transfected cells
Sequence (Q695T7 1-634): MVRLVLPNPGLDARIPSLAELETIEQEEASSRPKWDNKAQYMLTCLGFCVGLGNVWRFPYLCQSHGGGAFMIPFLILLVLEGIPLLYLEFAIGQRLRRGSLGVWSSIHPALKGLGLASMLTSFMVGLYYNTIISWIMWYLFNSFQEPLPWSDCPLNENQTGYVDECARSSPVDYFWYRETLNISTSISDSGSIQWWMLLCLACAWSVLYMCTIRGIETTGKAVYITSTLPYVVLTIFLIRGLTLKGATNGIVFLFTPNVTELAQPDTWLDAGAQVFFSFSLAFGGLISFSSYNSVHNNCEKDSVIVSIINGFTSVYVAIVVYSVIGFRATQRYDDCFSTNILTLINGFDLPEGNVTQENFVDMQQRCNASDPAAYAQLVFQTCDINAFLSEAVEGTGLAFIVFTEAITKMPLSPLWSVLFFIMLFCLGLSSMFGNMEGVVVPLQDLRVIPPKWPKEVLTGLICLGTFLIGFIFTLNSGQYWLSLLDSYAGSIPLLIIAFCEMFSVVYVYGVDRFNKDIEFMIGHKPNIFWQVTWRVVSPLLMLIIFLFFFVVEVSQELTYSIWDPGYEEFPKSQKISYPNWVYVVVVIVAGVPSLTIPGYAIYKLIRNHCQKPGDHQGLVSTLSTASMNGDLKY
Sequence (Q9HBJ8 15-222 partner): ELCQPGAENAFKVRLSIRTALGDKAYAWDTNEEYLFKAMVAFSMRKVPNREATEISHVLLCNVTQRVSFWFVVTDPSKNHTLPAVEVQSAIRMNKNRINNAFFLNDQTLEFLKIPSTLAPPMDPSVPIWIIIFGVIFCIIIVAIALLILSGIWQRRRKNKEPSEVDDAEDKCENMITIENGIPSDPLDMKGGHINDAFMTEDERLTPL
Assay: Radiolabelled (3H) leucine uptake in CHO cells with doxycycline-inducible expression of human SLC6A19 and TMEM27 (Example B-1)
Format: cell-based
Conditions: CHO cells with doxycycline-inducible expression of human SLC6A19 and TMEM27, read-out: SLC6A19_Radioligand Uptake Assay IC50
Hi there, I'd appreciate the recorded IC50 for every entry that follows.
Answers are plain numbers, in nM.

Example entries begin here.
Cc1cc(COc2cc3[nH]c(CNC(=O)NCCF)cc3cc2Cl)on1 [Compound 371]
141
CC1(C(=O)NCc2cc3cc(Cl)c(OCc4cccs4)cc3[nH]2)CC1 [Compound 65]
152
CC(F)C(=O)NCc1cc2cc(Cl)c(OCc3cscn3)cc2[nH]1 (racemic) [Compound 511]
86.1

The following compounds each have a reported value; give each one's IC50.
1. Cc1ccnc(COc2cc3[nH]c(CNC(=O)C4(C)CC4)cc3cc2Cl)c1 [Compound 22]
2. Cc1cc(COc2cc3[nH]c(CNC(=O)C4(C)CC4)cc3cc2OC(F)F)on1 [Compound 606]
3. COC(=O)NCc1cc2cc(Cl)c(OCc3cc(C)no3)cc2[nH]1 [Compound 625]
4. CCc1c(CNC(=O)N2CCC2)[nH]c2cc(OCc3cscn3)c(Cl)cc12 [Compound 424]
5. CCc1cc2cc(CNC(=O)C3(C)CC3)[nH]c2cc1OCc1cscn1 [Compound 202]

(A)
2240
320
90.2
1260
1560
